src = the supplement of paper PMC11246515

experiment: total protein half-life in vivo (active degradation + dilution); higher = more stable protein; details: wild type E. coli NCM3722; growth: N-lim chemostat; doubling time 6 h

# SEQUENCE STRING, total protein half-life in vivo
rows = [
    ("MGLMNAFDSQTEDSSPAIGRNLRSRPLARKKLSEMVEEELEQMIRRREFGEGEQLPSERELMAFFNVGRPSVREALAALKRKGLVQINNGERARVSRPSADTIIGELSGMAKDFLSHPGGIAHFEQLRLFFESSLVRYAAEHATDEQIDLLAKALEINSQSLDNNAAFIRSDVDFHRVLAEIPGNPIFMAIHVALLDWLIAARPTVTDQALHEHNNVSYQQHIAIVDAIRRHDPDEADRALQSHLNSVSATWHAFGQTTNKKK [P0A8W0]", "3.95 h"),
    ("MSQVQSGILPEHCRAAIWIEANVKGEVDALRAASKTFADKLATFEAKFPDAHLGAVVAFGNNTWRALSGGVGAEELKDFPGYGKGLAPTTQFDVLIHILSLRHDVNFSVAQAAMEAFGDCIEVKEEIHGFRWVEERDLSGFVDGTENPAGEETRREVAVIKDGVDAGGSYVFVQRWEHNLKQLNRMSVHDQEMVIGRTKEANEEIDGDERPETSHLTRVDLKEDGKGLKIVRQSLPYGTASGTHGLYFCAYCARLHNIEQQLLSMFGDTDGKRDAMLRFTKPVTGGYYFAPSLDKLMAL", "3.18 h"),
    ("MKHTVEVMIPEAEIKARIAELGRQITERYKDSGSDMVLVGLLRGSFMFMADLCREVQVSHEVDFMTASSYGSGMSTTRDVKILKDLDEDIRGKDVLIVEDIIDSGNTLSKVREILSLREPKSLAICTLLDKPSRREVNVPVEFIGFSIPDEFVVGYGIDYAQRYRHLPYIGKVILLDE [P0A9M2]", "4.13 h"),
]

====

test: total protein half-life in vivo (active degradation + dilution); higher = more stable protein; settings: wild type E. coli NCM3722; growth: P-lim chemostat; doubling time 6 h
The entries below come with measured total protein half-life in vivo values attached.

# SEQUENCE STRING, UOM, total protein half-life in vivo
rows = [
    ("MKGRWVKYLLMGTVVAMLAACSSKPTDRGQQYKDGKFTQPFSLVNQPDAVGAPINAGDFAEQINHIRNSSPRLYGNQSNVYNAVQEWLRAGGDTRNMRQFGIDAWQMEGADNYGNVQFTGYYTPVIQARHTRQGEFQYPIYRMPPKRGRLPSRAEIYAGALSDKYILAYSNSLMDNFIMDVQGSGYIDFGDGSPLNFFSYAGKNGHAYRSIGKVLIDRGEVKKEDMSMQAIRHWGETHSEAEVRELLEQNPSFVFFKPQSFAPVKGASAVPLVGRASVASDRSIIPPGTTLLAEVPLLDNNGKFNGQYELRLMVALDVGGAIKGQHFDIYQGIGPEAGHRAGWYNHYGRVWVLKTAPGAGNVFSG [P0A935]", "h", 3.7),
    ("MKYQLTALEARVIGCLLEKQVTTPEQYPLSVNGVVTACNQKTNREPVMNLSESEVQEQLDNLVKRHYLRTVSGFGNRVTKYEQRFCNSEFGDLKLSAAEVALITTLLLRGAQTPGELRSRAARMYEFSDMAEVESTLEQLANREDGPFVVRLAREPGKRENRYMHLFSGEVEDQPAVTDMSNAVDGDLQARVEALEIEVAELKQRLDSLLAHLGD", "h", 5.38),
    ("MRVLGIETSCDETGIAIYDDEKGLLANQLYSQVKLHADYGGVVPELASRDHVRKTVPLIQAALKESGLTAKDIDAVAYTAGPGLVGALLVGATVGRSLAFAWDVPAIPVHHMEGHLLAPMLEDNPPEFPFVALLVSGGHTQLISVTGIGQYELLGESIDDAAGEAFDKTAKLLGLDYPGGPLLSKMAAQGTAGRFVFPRPMTDRPGLDFSFSGLKTFAANTIRDNGTDDQTRADIARAFEDAVVDTLMIKCKRALDQTGFKRLVMAGGVSANRTLRAKLAEMMKKRRGEVFYARPEFCTDNGAMIAYAGMVRFKAGATADLGVSVRPRWPLAELPAA", "h", 4.07),
]
